Tested on: K4 kissing-loop RNA reporter;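 note: bound reporter read as fluorescence of individual clusters on recovered sequencing chips by microscopy, with normalized cluster intensities fitted with a binding model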
measurementDescription: apparent KD of K4 kissing-loop reporter; higher = weaker reporter binding
testConditions: Eterna round: R107; input ligand: arginine 13.2 mM
So basically: apparent KD of K4 kissing-loop reporter at 300 nM or higher? That is TRUE. Lower than 300 nM? That is FALSE.

Req: Does UCUAACAAAUCGGCCGCCACUGAAAUAACCCAGGAGUGAUGUUCCAUCGUCCUAGACUACUCUUCCAGGACCGGGAUCUGUGUUC [theeternabot_exclusion_KL_Trp_B_25] have a reported apparent KD of K4 kissing-loop reporter of at least 300 nM?
Resp: TRUE

Req: Does AAUGUACAGGGAAGGAGCGCCGUCCAGUGAUGUUGGAGUUAAAUACCAGUGAUGUUGGUUAGGCAGGUAGGUCGCCCUAUAGUAU [#07 K4 Arginine B Exclusion] have a reported apparent KD of K4 kissing-loop reporter of at least 300 nM?
Resp: FALSE

Req: Does AUUUAAUGUAUAGAUUAUAUACAUUAUUCAGAGGAUAUGCAUUGAAGCAGAAGGCUGGGUGUAGUGAUGUUGCAAUUUUAAUUUA [whbob_SS_FMNA__2th172] have a reported apparent KD of K4 kissing-loop reporter of at least 300 nM?
Resp: FALSE

Req: Does AAAUUCUUUUUUUUAUUUAAGUUUUCAGAAGGAGCGUGGUAGUACACAGGUAGGUCGCUGAAUUUUGGGCUAGUGAUGUUAGUUA [whbob_SS_Arginine_A_sa114] have a reported apparent KD of K4 kissing-loop reporter of at least 300 nM?
Resp: FALSE

Req: Does AGAGUUAUGCGAGGAUAUGCGGUUAGUACUCAAAGAGUACUAACGCAGAGUGAUGUUCUGUGAAACACAGAAGGUGCAUAACUCA [Omei KL FMN B SS B v2] have a reported apparent KD of K4 kissing-loop reporter of at least 300 nM?
Resp: FALSE

Req: Does UUUCGGUUCUGAGGAUAUUCGGACAAAUAUAGUGAUGUUGUAUAAGGAGGAGGGUGUUGGCAGUGCGGAGAAGGCAGACCACGAU [ExFMNB.X] have a reported apparent KD of K4 kissing-loop reporter of at least 300 nM?
Resp: TRUE

Req: Does AUGCGCGUGCGAUGAAAAUCGCACGCGCAUCGAGGACCGGUACGGCCGCCACUCGCUCGCGCCGAGUGAUGUUCGGCCGGCGAAC [#2 Same State - Tryptophan A Attempt #4 (HarryS)] have a reported apparent KD of K4 kissing-loop reporter of at least 300 nM?
Resp: FALSE

Req: Does AAAAGCCUACAGGAUACCAGCCGAAUACUAAAAGGCUGGAGUGAUGUUCCAGCUUGCCGCGGCCCUUGGCAGCCUAGCUGGGUGA [Soatriti] have a reported apparent KD of K4 kissing-loop reporter of at least 300 nM?
Resp: FALSE

---

Tested on: MS2 coat protein
measurementDescription: apparent KD of MS2 coat protein; designed switch direction (-1 OFF switch, 1 ON switch): -1; higher = weaker reporter binding
testConditions: input ligand: microRNA oligo, concentration not stated
measuredProperty: apparent KD of MS2 coat protein
Returns: string containing the numeric result and its unit.

Check out these entries, answers already filled in.
>  <macromoleculeSequence>
AAUUAUUGAUGAGGAUAUUGUGGUGAAACACGACAAGAAGGCAUUAUACACAUGAGGAUCACCCAUGUGAGCCUGAUGCAUAUA [Ex NG1 #59] (Eterna round: R96, puzzle: Exclusion NG 1)

>  <measuredProperty>
apparent KD of MS2 coat protein

>  <result>
12.4 nM

$$$$
>  <macromoleculeSequence>
GCACGGUUGGUAGGAUAUCCUUGCGAUUAGCAAGGAGAAGGACCACAUGAGGAUCACCCAUGUACCUCAAUAAUCCUUCCGUGC [Eli exng1 - 027] (Eterna round: R96, puzzle: Exclusion NG 1)

>  <measuredProperty>
apparent KD of MS2 coat protein

>  <result>
12.1 nM

$$$$
>  <macromoleculeSequence>
GCACGGAUGGUAGGAUAUCUGUGCGAUUAGCUCAGAGAAGGACCACAUGAGGAUCACCCAUGUACCUCAAUUAGCUUUCCGUGC [Eli exng1 - 020] (Eterna round: R96, puzzle: Exclusion NG 1)

>  <measuredProperty>
apparent KD of MS2 coat protein

>  <result>
11 nM

$$$$
>  <macromoleculeSequence>
UUGUACCGGUGAGGAUAUUUUUAAUAGAGCUUUAUGAUAUACAUGAGGAUCACCCAUGUUACGUUAAAGAAGGCAUCGGAUUAU [JL JR Sub091 mod 4] (Eterna round: R96, puzzle: Exclusion NG 2)

>  <measuredProperty>
apparent KD of MS2 coat protein

>  <result>
13.9 nM

$$$$

Req: API: value(readout= apparent KD of MS2 coat protein, system= MS2 coat protein, query= GCACGAAGUGUAGGAUAUCUGUGCGAUUAGCUCAGAGAAGGACACAUGAGGAUCACCCAUGUGUUCCAAUACCCAAAUACGUGC [Eli exng1 - 061] (Eterna round: R96, puzzle: Exclusion NG 1) )
Resp: 7.69 nM

Req: API: value(readout= apparent KD of MS2 coat protein, system= MS2 coat protein, query= AAACUGAGGCAAAGCUUUAGUCGUACAUGAGGAUCACCCAUGUAGGAUAUGGUAGGCAAAGCUUACCAGAAGGACAGAGUGAUC [Mat - Exclusion NG 3 - Mod of JL - D57] (Eterna round: R96, puzzle: Exclusion NG 3) )
Resp: 487 nM

Req: API: value(readout= apparent KD of MS2 coat protein, system= MS2 coat protein, query= CCAUCUCUAGUAGGAUAUGUCGGAUAUGUUGUUGAGGUUCACCCAACGACGUCAAUGACAGAAGGACAGAAGGACUCUCGAUGC [pwkr exNG2 2xFMN 1xF5.6] (Eterna round: R96, puzzle: Exclusion NG 2) )
Resp: 463 nM

Req: API: value(readout= apparent KD of MS2 coat protein, system= MS2 coat protein, query= UCGCUCCGUGUAGGAUAUCGUUGUACCCUGCGGCGAGAAGGACAUGAGGAUCACCCAUGUAUGUUAUUAUCACGCGUGGCGCAC [Design 70] (Eterna round: R96, puzzle: Exclusion NG 1) )
Resp: 15.5 nM

Req: API: value(readout= apparent KD of MS2 coat protein, system= MS2 coat protein, query= AGAGUGCUGCGAGGAUAUACAUGAGGAUCACCCAUGUAAAAGUGUGAGGCUUUGCCUCACACGAAGUAGAAGGCGCAGUACUCA [Mat - Exclusion NG 2 - Mod of JL - D33] (Eterna round: R96, puzzle: Exclusion NG 2) )
Resp: 11.3 nM

Req: API: value(readout= apparent KD of MS2 coat protein, system= MS2 coat protein, query= UUUAGUUGGUAAGGAUAUCCUACAUUGUUCUGGCCCGGGCAUGCUACAUGAGGAUCACCCAUGUGGGAGAAGGUGCGUCAUCGC [Design 19] (Eterna round: R96, puzzle: Exclusion NG 2) )
Resp: 39.4 nM
